Reference source: paper PMC8140528

# experimentalProtocol: Differential nuclear staining
# Type: cell-based
# condition: human, Hs27 non-cancerous fibroblast cells
parameterMeasured: CC50 at 72 h (µM)
# number only, unit µM dropped from output

COc1ccc(Cc2nn3c(SC#N)c(-c4cc5ccccc5oc4=O)nc3s2)cc1 [Compound 7g]; 31.4

Next, consider the following molecule.
Inquiry: Give CC50 at 72 h for the following molecule: COc1ccc(Cc2nn3c(C=O)c(-c4ccc(Cl)cc4)nc3s2)cc1 [Compound 8b]
Reply text: 2.36

###

Each item that follows carries a reported IC50.
# Tested on: human cervix carcinoma cells (HeLa)
# experimentalProtocol: Antiproliferative effect on HeLa cells
# Type: cell-based
# condition: Homo sapiens, HeLa, read-out: IC50 HeLa
# number only, unit nM dropped from output

COc1ccc(Cc2nn3c(C=O)c(-c4ccc(Cl)cc4)nc3s2)cc1; 1300

Next, consider the following compound.
Inquiry: Give IC50 for the following compound: COc1ccc(Cc2nn3c(SC#N)c(-c4cc5ccccc5oc4=O)nc3s2)cc1
Reply text: 780
